Provenance of the data: paper PMC10447463

Would you kindly list Log Infectivity for each of these substances?
test system: HIV-1 infection of TZM-bl cells; test: HIV-1 infectivity enhancement assay, β-galactosidase luminescence; type: cell-based; settings: Fig. S7 panel A (plotted against β-sheet content); Log10 infection relative to EF-C, TZM-bl cells; asymmetric std dev errors
I only need the number, thanks.

*Q* GET /values?readout=Log Infectivity&item= KLKLKLQL
*A* -1.009

*Q* What does the record list as Log Infectivity for KIKIQINMWQRGD ?
*A* -1.917

*Q* May I ask what Log Infectivity has been recorded for KIKQIIN ?
*A* -1.4

*Q* Looking for the measured Log Infectivity of KIKIQIMWNQ , can you help?
*A* -0.2495

---

Test: Zeta-potential measurement
Assay type: physicochemical
Conditions: FigS26
Procedure: 4 µL of 1 mg/mL peptide fibrils solution is added to a 20 µL, 50 µM ThT–solution in PBS. The mixture is incubated for 15 min at RT to allow binding of ThT dye with β–sheet rich structures. […] Fluorescence spectra were recorded on an Infinite® M1000 PRO microplate reader (Tecan) at λem = 488 nm upon excitation at λex = 440 nm with 10 nm bandwidths and multiple reads per well (3×3). […] Furthermore, fluorescence microscopy was conducted by staining 1 µL preformed fibrils (1 mg/mL) with 9 µL ThT (50 µM). […]
Quantity Measured: Zeta category ( +1 = if > 4 mV;-1 = if < -4 mV; 0 = -4mV to 4 mV)

*Q* Data request, read-out Zeta category ( +1 = if > 4 mV;-1 = if < -4 mV; 0 = -4mV to 4 mV), for CKIKIQI [MG3b]
*A* 1 (+1 = if > 4 mV)

*Q* Can you share its Zeta category ( +1 = if > 4 mV;-1 = if < -4 mV; 0 = -4mV to 4 mV)? I mean this substance: KIKIQINAWQ [JR3-II]
*A* 1 (+1 = if > 4 mV)

*Q* Entry NMWQKFKFQF [JG11] has what Zeta category ( +1 = if > 4 mV;-1 = if < -4 mV; 0 = -4mV to 4 mV)?
*A* 1 (+1 = if > 4 mV)

---

Format: physicochemical
Design: key: 1 = fibrils present; 0 non-fibrillar structures
Conditions: FigS12 panel B; TEM
Procedure: For ATR FT–IR spectroscopy measurements, 200 µL of the respective 1 mg/mL PNF solution was lyophilized and the resulting powder used for measurement. All spectra were recorded on a Bruker Tensor 27 spectrometer with a diamond crystal as ATR element (PIKE MiracleTM, spectral resolution 2 cm^-1). Every sample was measured with 64 scans. Data were analyzed with OriginLab software and calculation of β–sheet content was conducted according to a previous report. TEM. […]
Field: Fibril. Provide a value for each of the substances that follow.
Please reply with the number alone, leaving off any unit.

*Q* I'd like to know its Fibril. The substance in question is KVKVKVQV
*A* 0

*Q* Item under review: KWKWQW . Reported Fibril?
*A* 0

*Q* // query Fibril value for entry QCKAKAQANMWQ
*A* 0

*Q* Name the reported Fibril value associated with the substance KFKQFFNMWQ
*A* 0

*Q* Entry CHLHLQL : reported Fibril = ?
*A* 0

*Q* Could you tell me which Fibril is on file for KIKIQIRGD ?
*A* 1

*Q* I would be grateful if you could share the reported Fibril for RLRLTLC .
*A* 1

*Q* Endpoint output: Fibril of CKFKQFF . Value?
*A* 0

*Q* Reported Fibril, substance KAKAQA : ____
*A* 0

*Q* I'd like to know its Fibril. The substance in question is CKAKAQANMWQ
*A* 0

*Q* Reported Fibril, substance CEFEFQF : ____
*A* 1

*Q* Consider the substance KYKGAIIGNIK and give its measured Fibril.
*A* 0

*Q* Param item = RPRGLLLGNLR ; retrieve measured Fibril.
*A* 0

*Q* Form field: reported Fibril of EIEIQINM
*A* 1

*Q* GET /values?readout=Fibril&item= KIKQII
*A* 0

*Q* Returns the measured Fibril for the input substance. Input: KIRGKFEKED
*A* 0

*Q* Recorded Fibril of KAKQAANMWQ , please.
*A* 0

*Q* I am curious: what Fibril value has been reported for NMWQKVGTPL ?
*A* 0

*Q* Please report the recorded Fibril for QCKAKAQANM .
*A* 0

*Q* Please look up its Fibril: HGEHGEHGE
*A* 0

*Q* Need Fibril of CKAKAQA , thanks.
*A* 0

*Q* Query (substance): KKFQKKFQ ; field requested: Fibril
*A* 0

*Q* Fill in the blank: the reported Fibril of HHHHEIEIEIEI is ____.
*A* 0

*Q* // returns reported Fibril for input QCKFKQFF
*A* 1

*Q* Quick check: Fibril of KFKFEFEF ?
*A* 1

*Q* Any idea what its Fibril is? The substance is TKTLTKTL
*A* 0

*Q* # input substance: RGDKIRGDKI ; wanted: its Fibril
*A* 0
